Assay: Cellular uptake in human MDM at 3 to 20 uM after 3 hrs by LC-MS/MS analysis relative to azithromycin
Format: ADME
Endpoint: Drug uptake (%)
Give bare numbers, in %.

Examples from the recorded data:
>>> reported_measurement("CC[C@H]1OC(=O)[C@H](C)[C@@H](O[C@H]2C[C@@](C)(OC)[C@@H](O)[C@H](C)O2)[C@H](C)[C@@H](O[C@@H]2O[C@H](C)C[C@H](N(C)C)[C@H]2O)[C@](C)(O)C[C@@H](C)CN(C)[C@H](C)[C@@H](O)[C@]1(C)O")
100
>>> reported_measurement("CCCCCCCC(=O)NCCCN(C)[C@H]1C[C@@H](C)O[C@@H](O[C@@H]2[C@@H](C)[C@H](O[C@H]3C[C@@](C)(OC)[C@@H](O)[C@H](C)O3)[C@@H](C)C(=O)O[C@H](CC)[C@@](C)(O)[C@H](O)[C@@H](C)N(C)C[C@H](C)C[C@@]2(C)O)[C@@H]1O")
1235
>>> reported_measurement("CC[C@H]1OC(=O)[C@H](C)[C@@H](O)[C@H](C)[C@@H](O[C@@H]2O[C@H](C)C[C@H](N(C)C)[C@H]2O)[C@](C)(O)C[C@@H](C)CN(C)[C@H](C)[C@@H](O)[C@]1(C)O")
79

Turning now to a further compound:
Exercise: Tell me measured Drug uptake for CCCCCCCC(=O)NCCCN1C[C@H](C)C[C@@](C)(O)[C@H](O[C@@H]2O[C@H](C)C[C@H](N(C)C)[C@H]2O)[C@@H](C)[C@H](O[C@H]2C[C@@](C)(OC)[C@@H](O)[C@H](C)O2)[C@@H](C)C(=O)O[C@H](CC)[C@@](C)(O)[C@H](O)[C@H]1C please.
Key: 120

====

Assay: Cellular uptake in human PMNC at 3 to 20 uM after 3 hrs by LC-MS/MS analysis relative to azithromycin
Format: ADME
Decision: Drug uptake beneath 40% gives MET; Drug uptake meeting or exceeding 40% gives NOT MET.

Worked set:
>>> cat("CC[C@H]1OC(=O)[C@H](C)[C@@H](O[C@H]2C[C@@](C)(OC)[C@@H](O)[C@H](C)O2)[C@H](C)[C@@H](O[C@@H]2O[C@H](C)C[C@H](N(C)C)[C@H]2O)[C@](C)(OC)C[C@@H](C)C(=O)N[C@H](C)[C@@H](O)[C@]1(C)O")
"MET"
>>> cat("CCCCCCCC(=O)NCCCN(C)[C@H]1C[C@@H](C)O[C@@H](O[C@@H]2[C@@H](C)[C@H](O[C@H]3C[C@@](C)(OC)[C@@H](O)[C@H](C)O3)[C@@H](C)C(=O)O[C@H](CC)[C@@](C)(O)[C@H](O)[C@@H](C)N(C)C[C@H](C)C[C@@]2(C)O)[C@@H]1O")
"NOT MET"
>>> cat("CCCCCCCC(=O)NCCCN1C[C@H](C)C[C@@](C)(O)[C@H](O[C@@H]2O[C@H](C)C[C@H](N(C)C)[C@H]2O)[C@@H](C)[C@H](O[C@H]2C[C@@](C)(OC)[C@@H](O)[C@H](C)O2)[C@@H](C)C(=O)O[C@H](CC)[C@@](C)(O)[C@H](O)[C@H]1C")
"NOT MET"

Exercise: Answer whether the compound CC[C@H]1OC(=O)[C@H](C)[C@@H](O)[C@H](C)[C@@H](O)[C@](C)(O)C[C@@H](C)CN(C)[C@H](C)[C@@H](O)[C@]1(C)O has Drug uptake strictly less than 40%
Key: MET

Exercise: Dear reviewer, please state whether CC[C@H]1OC(=O)[C@H](C)[C@@H](O[C@H]2C[C@@](C)(OC)[C@@H](O)[C@H](C)O2)[C@H](C)[C@@H](O[C@@H]2O[C@H](C)C[C@H](N(C)C)[C@H]2O)[C@](C)(O)C[C@@H](C)CN(C)[C@H](C)[C@@H](O)[C@]1(C)O has Drug uptake strictly beneath 40%.
Key: NOT MET

Exercise: Please state whether Drug uptake is below 40% for CC[C@H]1OC(=O)[C@H](C)[C@@H](O[C@H]2C[C@@](C)(OC)[C@@H](OC(=O)CN(CC)CC)[C@H](C)O2)[C@H](C)[C@@H](O[C@@H]2O[C@H](C)C[C@H](N(C)C)[C@H]2O)[C@](C)(OC)C[C@@H](C)C(=O)N[C@H](C)[C@@H](O)[C@]1(C)O
Key: NOT MET

Exercise: Decide: Drug uptake of CC[C@H]1OC(=O)[C@H](C)[C@@H](O[C@H]2C[C@@](C)(OC)[C@@H](O)[C@H](C)O2)[C@H](C)[C@@H](O[C@@H]2O[C@H](C)C[C@H](N(C)C)[C@H]2O)[C@](C)(OC)C[C@@H](C)C(=O)[C@H](C)[C@@H](O)[C@]1(C)O strictly below 40%?
Key: MET

Exercise: # strict comparison: is reported Drug uptake < 40%? input = CC[C@H]1OC(=O)[C@H](C)[C@@H](O)[C@H](C)[C@@H](O[C@@H]2O[C@H](C)C[C@H](N(C)C)[C@H]2O)[C@](C)(O)C[C@@H](C)CN(C)[C@H](C)[C@@H](O)[C@]1(C)O
Key: NOT MET
